Field Ki: reported value for D(3) dopamine receptor (Homo sapiens); entries drawn from several documents.
MEASUREMENT_LABEL: Ki (µM)

[I] Cc1nc(N)sc1CCCN/C(N)=N/C(=O)NCc1ccccc1
[II] O=C(NCCCCN1CCN(c2cccc(Cl)c2Cl)CC1)[C@H]1CC[C@@H](c2ccccc2)CC1
[III] CN1CCCC[C@@H]1CCN1c2ccccc2Sc2ccc([S@@](C)=O)cc21
Q) Sort the entries above by Ki, largest first. # respond with the labels, arranged in the requested order
A) I, III, II

* * *

pKi: −log10 of the molar value.
Record: compiled pKi on D(3) dopamine receptor (Homo sapiens, UniProt P35462) from multiple reports.
Sequence (P35462 whole entry): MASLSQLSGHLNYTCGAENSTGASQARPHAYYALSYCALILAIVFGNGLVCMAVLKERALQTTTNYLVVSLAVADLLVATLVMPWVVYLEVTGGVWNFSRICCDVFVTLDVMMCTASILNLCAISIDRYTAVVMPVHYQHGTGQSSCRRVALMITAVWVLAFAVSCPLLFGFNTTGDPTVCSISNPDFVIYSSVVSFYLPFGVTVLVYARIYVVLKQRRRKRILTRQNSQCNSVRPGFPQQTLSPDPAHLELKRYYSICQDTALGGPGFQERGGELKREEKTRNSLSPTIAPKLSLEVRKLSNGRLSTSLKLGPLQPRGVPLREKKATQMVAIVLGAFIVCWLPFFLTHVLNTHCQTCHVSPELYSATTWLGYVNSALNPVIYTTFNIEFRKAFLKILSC
MEASUREMENT_LABEL: pKi

| COMPOUND | pKi |
| --- | --- |
| COc1ccccc1N1CCN(CCCNC(=O)NN(Cc2ccccc2F)c2ccc(Cl)cc2)CC1 | 7.02 |

[P] COc1ccc(N2CCN(Cc3ccc4c(c3)OCC(=O)N4)CC2)cc1
[Q] O=C(NCCCCN1CCN(c2cnc3ccccc3c2)CC1)c1ccccc1
[R] c1ccc(N2CCN(CCCCc3cc(-c4cccs4)no3)CC2)cc1
Q) Order the records so the highest pKi appears first and the lowest last. # format: label list in the order the request specifies
A) R, Q, P
(R: 7.82, Q: 7.40, P: 5.75)

* * *

Before we begin, note that these pKi values for D(3) dopamine receptor (Homo sapiens) originate from several publications.
pKi: −log10 of the molar value.

Please review the entries below; each comes with its answer.
| STRUCTURE | MEASURED_ON | pKi |
| --- | --- | --- |
| Cc1ccc(N2CCN(Cc3nc4ccccc4[nH]3)CC2)cc1C | D(3) dopamine receptor (Homo sapiens) | < 5.22 |
| O=C(/C=C/c1ccc2[nH]ccc2c1)NCCCCN1CCc2ccc(OS(=O)(=O)C(F)(F)F)cc2C1 | D(3) dopamine receptor (Homo sapiens) | 8.70 |

Let us examine a further case.
Q) Look up pKi: Cc1ccccc1-c1ccc(C(=O)N2CCN(C(=O)c3ccc4cc[nH]c4c3)[C@@H](C)C2)cc1
A) < 5.00

* * *

Across several studies, molecules have been characterized by their Ki on D(3) dopamine receptor (Homo sapiens, UniProt P35462); a selection follows.

| MOLECULE | MEASUREMENT |
| --- | --- |
| CC1(c2ccc(O)cc2)C(=O)Nc2cc(Cl)cc(Cl)c2C1=O (stereo not given) | > 10000 nM |
| C[C@@H]1CN(CCCn2c3ccccc3c3ccccc32)C[C@H](C)N1C | > 8000 nM |
| COc1ccccc1N1CCN(CCCCNC(=O)[C@H]2CC[C@H](c3ccccc3)CC2)CC1 | 3.4 nM |

Q) # returns recorded Ki (system: D(3) dopamine receptor (Homo sapiens, UniProt P35462)) for O[C@H](CCCN1CCN(c2ncc(F)cn2)CC1)c1ccc(F)cc1
A) > 2000 nM

Q) # get_value(readout= Ki, system= D(3) dopamine receptor (Homo sapiens, UniProt P35462)) for COc1ccc(N2CCN(CCC3NC(=O)c4ccccc43)CC2)cc1 (stereo not given)
A) > 3000 nM

* * *

# pKi against D(3) dopamine receptor (Homo sapiens), merged from multiple literature sources
pKi: −log10 of the molar value.
MEASUREMENT_LABEL: pKi

| COMPOUND | pKi |
| --- | --- |
| COc1ccccc1N1CCN(CCCNC(=O)NN(Cc2ccc(-c3ccccc3)cc2)c2ccc(F)cc2)CC1 | 6.96 |
| Cc1ccc(OCCNCCCOc2ccc(F)cc2)cc1 | 6.63 |
| CN(C)c1ccc(Cc2ccc3c4c2-c2c(ccc(O)c2O)C[C@H]4N(C)CC3)cc1 | 7.28 |
| COc1ccc(C(=O)NCCCCN2CCO[C@@H]3c4ccccc4OC[C@H]32)cc1 (racemic) | 8.12 |
| O=c1c2ccccc2ncn1CCCCN1CCN(c2ccc(Cl)cc2)CC1 | 5.75 |

[I] CC(C)(C)c1nc(N2CCN(CCCCn3ccc(C(F)(F)F)cc3=O)CC2)cc(C(F)(F)F)n1
[II] COc1ccccc1N1CCN(CCNC(=O)c2cc(Br)c3ccccc3c2OC)CC1
Q) // which entry has the larger pKi value, I or II ? Use the label to indicate which entry you chose.
A) I

[A] Clc1cccc(N2CCN(CCCCOc3ccc4ccnn4c3)CC2)c1Cl
[B] COc1ccc(Br)cc1-c1nc(CN2CCN(Cc3ccccc3)CC2)cs1
[C] COc1ccccc1N1CCN(CCCCn2cc(-c3ccc(-c4cnco4)cc3)nn2)CC1
[D] O=C(NCCCCN1CCO[C@@H]2c3ccccc3OC[C@H]21)c1cccs1 (racemic)
[E] CCCN(CCCCNC(=O)/N=N/c1cc(F)c(F)c(F)c1)C1Cc2ccccc2C1
Q) Please list the entries, largest pKi first. Use the labels to give the ranking in the order requested.
A) A, E, D, C, B
(A: 8.64, E: 8.31, D: 7.73, C: 6.87, B: 6.19)

* * *

pKi values for D(3) dopamine receptor (Homo sapiens, UniProt P35462), compiled from several publications.
pKi: −log10 of the molar value.
MEASUREMENT_LABEL: pKi

[a] c1ccc(C[n+]2cc[n+](-c3cccc4[nH]ccc34)cc2)cc1
[b] COc1ccccc1N1CCN(CCCCNC(=O)Nc2cccc(Cl)c2)CC1
[c] O=C(/C=C/c1ccc(F)cc1)N[C@H]1CC[C@H](CCN2Cc3ccc(Br)cc3C2)CC1
[d] COc1ccccc1N1CCN(Cc2cn3cc(C)cc(I)c3n2)CC1
Q) Arrange the above in rising order of pKi. Labels, ranked as asked.
A) d, a, c, b

* * *

pKi: −log10 of the molar value.
Before we begin, note that these pKi values for D(3) dopamine receptor (Homo sapiens) originate from several publications.
MEASUREMENT_LABEL: pKi

| MOLECULE | MEASURED_ON | pKi |
| --- | --- | --- |
| CCCC#Cc1cc(CN2CCN(c3ccccc3OC)CC2)c2cccccc1-2 | D(3) dopamine receptor (Homo sapiens) | 6.43 |
| O=C(CCCCCCCCCCCCCCCCCCCCC(=O)OC1(c2ccc(Cl)cc2)CCN(CCCC(=O)c2ccc(F)cc2)CC1)OC1(c2ccc(Cl)cc2)CCN(CCCC(=O)c2ccc(F)cc2)CC1 | D(3) dopamine receptor (Homo sapiens) | 6.30 |
| O/N=C/c1cnn2ccc(OCCCCN3CCN(c4ccc(O)c5c4OCCO5)CC3)cc12 (stereo in doubt; 9f) | D(3) dopamine receptor (Homo sapiens) | 7.46 |
| CN(C)C[C@H]1CC2c3ccccc3Oc3ccc(Br)cc3[C@H]2O1 (some centres not stated) | D(3) dopamine receptor (Homo sapiens) | 7.02 |
| c1ccc(Cc2ccccc2OCCCN2CCCC2)cc1 | D(3) dopamine receptor (Homo sapiens) | 5.53 |

[I] O=C(NCCCCN1CCN(c2cccc(Cl)c2Cl)CC1)c1cn(-c2ccc([N+](=O)[O-])cc2)nn1
[II] c1cnc(N[C@H]2CC[C@H](CCN3CCN(c4cnccn4)CC3)CC2)nc1
Q) Sorting by pKi in descending order, would I or II appear first? // caller expects the label of the chosen entry
A) I
(I: 9.00, II: 6.68)

[P] C[C@H]1CO[C@@H](c2ccc(N)nc2)CN1CC(=O)N1CCC(CNC(=O)c2cc3ccccc3[nH]2)C1 (some centres not stated)
[Q] COc1ccc(C(=O)NCc2ccccc2CN2CCc3cc(OC)c(O)cc3C2)cc1
[R] O=C(NCCCCN1CC[C@H]2c3ccc(O)cc3CC[C@@H]21)c1ccc(-c2ccccc2)cc1
[S] CCCN(CCC)C1COc2ccc3nc(N)sc3c2C1 (configuration not stated)
Q) Rank ascending by pKi. Your reply should list the labels following the order given in the request.
A) P, S, Q, R
(P: 5.86, S: 6.29, Q: 6.74, R: 7.90)

[A] CCN(CC)[C@H]1[C@H](CO)[C@@H]2CN(Cc3ccccc3)[C@@H](c3ccccc3)[C@@H]21
[B] CN1CCN(C2=Cc3ccccc3Cn3cccc32)CC1
Q) Lower value for measured pKi? Options: A , B Return value: the label identifying the chosen record.
A) A
(A: 5.89, B: 6.65)

* * *

// compounds with Ki on D(3) dopamine receptor (Homo sapiens), multi-source literature
MEASUREMENT_LABEL: Ki (nM)

| COMPOUND | Ki / nM |
| --- | --- |
| COc1cc(CN2CCN(c3ccccc3OC)CC2)c(OCCF)cc1OC | 330 |
| COc1cc(C(=O)NCCCCN2CCO[C@@H]3c4ccccc4OC[C@H]32)cc(OC)c1OC (racemic) | 6.8 |
| Clc1ccc(N2CCN(Cc3cnn(-c4ccccc4)c3)CC2)cc1 | 1900 |
| COc1ccccc1N1CCC2(CCN(CCCSc3nnc(-c4ccccc4)n3C)CC2)C1 | 19.6 |

[A] COc1ccc2[nH]cc(C(=O)NCCCCN3CCN(c4ccccc4OCCF)CC3)c2c1
[B] CCOc1c(C(=O)NCCN2CCN(c3cccc(C(F)(F)F)c3)CC2)cc(Br)c2ccccc12
Q) Between the two listed entries A and B , which has its Ki at the higher number? Indicate which entry you chose by stating its label.
A) B
(B: 126 nM, A: 0.39 nM)

[I] Clc1ccccc1OCCNCCCOc1ccccc1
[II] Clc1cccc(N2CCN(CCCOc3ccc(-c4cn5ccccc5n4)cc3)CC2)c1Cl
Q) Hi! Which is lower in terms of Ki, the first one I or the second one II ? Mark your selection by writing its label.
A) I

[A] CCCN(CCN1CCN(Cc2cc3ccccc3[nH]2)CC1)Cc1ccc(Br)cc1
[B] Cc1cc(I)cc(-c2nc(NC(=O)c3cccnc3)sc2-c2ccncc2)c1
[C] O=C(NCCCCN1CCN(c2ccccc2)CC1)[C@H]1CCc2ccccc2N1
Q) Ascending sort, Ki. Reply format: the labels, ordered as requested.
A) C, B, A
